experimentalTarget: KRAS G12S (Homo sapiens (Human), UniProt P01116+P62937, G12S)
Sequence (P01116-2 other isoform, or with tags, fused parts or gaps G12S): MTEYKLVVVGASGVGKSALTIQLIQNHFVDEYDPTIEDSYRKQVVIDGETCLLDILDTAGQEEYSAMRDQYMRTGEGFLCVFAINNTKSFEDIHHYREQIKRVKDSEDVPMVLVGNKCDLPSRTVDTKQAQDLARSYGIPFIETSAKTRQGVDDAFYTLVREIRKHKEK
Sequence (P62937 whole entry): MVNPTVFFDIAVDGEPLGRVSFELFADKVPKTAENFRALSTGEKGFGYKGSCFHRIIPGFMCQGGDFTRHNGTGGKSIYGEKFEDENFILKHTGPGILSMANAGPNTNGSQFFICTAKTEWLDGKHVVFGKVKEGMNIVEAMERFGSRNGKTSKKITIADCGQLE
measurementDescription: Ras-Raf (BRAF RBD) disruption / FRET / MOA assay, KRAS G12S
Type: biochemical
conditionInfo: Ras-Raf disruption/FRET/MOA assay; class symbols; read-out: KRAS G12S FRET data IC50
The entries below come with measured IC50 values attached.

As a guide, the following entries are already answered.
Lookup: IC50 lookup needed for `C=CC(=O)N1CC[C@H](C(=O)N(C)[C@H](C(=O)N[C@H]2Cc3cc(O)cc(c3)-c3ccc4c(c3)c(c(-c3ccccc3[C@@H](C)OC)n4CC)CC(C)(C)COC(=O)[C@@H]3CCCN(N3)C2=O)C(C)C)C1` , thanks.
Found: 100 to 1000 nM

Lookup: Any idea what its IC50 is? The compound is `CCn1c(-c2cccnc2)c2c3cc(ccc31)-c1cccc(c1)C[C@H](NC(=O)[C@H](C(C)C)N(C)C(=O)[C@H]1CCN(C(=O)C#CCN3CCOCC3)C1)C(=O)N1CCC[C@H](N1)C(=O)OCC(C)(C)C2`
Found: > 10000 nM

Lookup: What does the record list as IC50 for C=CC(=O)N1CC[C@H](C(=O)N(CC)[C@H](C(=O)N[C@H]2Cc3cccc(c3)-c3ccc4c(c3)c(c(-c3cccnc3[C@H](C)OC)n4CC)CC(C)(C)COC(=O)[C@@H]3CCCN(N3)C2=O)C(C)C)C1 (atropisomer, axis not shown) ?
Found: 1000 to 10000 nM

Next:
Lookup: # lookup: IC50 of C=CC(=O)N1CCN(C(=O)N(C)[C@H](C(=O)N[C@H]2Cc3nc(cs3)-c3ccc4c(c3)c(c(-c3cccnc3[C@H](C)OC)n4CC)CC(C)(C)COC(=O)[C@@H]3CCCN(N3)C2=O)C(C)C)[C@@H]2C[C@@H]21 (atropisomer, axis not shown)
Found: 10 to 100 nM

----------
experimentalTarget: K-Ras G12C (Homo sapiens (Human), UniProt P01116+P62937, G12C)
Sequence (P01116-2 other isoform, or with tags, fused parts or gaps G12C): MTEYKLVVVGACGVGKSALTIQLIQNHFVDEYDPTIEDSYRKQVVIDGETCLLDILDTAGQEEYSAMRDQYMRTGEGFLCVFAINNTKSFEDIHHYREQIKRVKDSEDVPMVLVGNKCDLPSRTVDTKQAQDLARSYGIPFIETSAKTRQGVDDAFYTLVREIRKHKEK
Sequence (P62937 whole entry): as the sequence (P62937 whole entry) above
measurementDescription: Ras-Raf (BRAF RBD) disruption / FRET / MOA assay, KRAS G12C
Type: biochemical
conditionInfo: KRAS G12C; Ras-Raf disruption/FRET/MOA assay; read-out: IC50* KRAS G12C FRET data
pIC50: −log10 of the molar value.
measuredAttribute: pIC50

Reference set (5 entries):
Lookup: Find the recorded pIC50 belonging to `CCn1c(-c2cnccc2COC)c2c3cc(ccc31)-c1cncc(c1)C[C@H](NC(=O)[C@H](C(C)C)N(C)C(=O)[C@H]1CCN(C(=O)C#CCN(C)C)C1)C(=O)N1CCC[C@H](N1)C(=O)OCC(C)(C)C2` and report it.
Found: 7.00 to 8.00

Lookup: Any idea what its pIC50 is? The compound is CCn1c(-c2cccnc2[C@H](C)OC)c2c3cc(ccc31)-c1cc(CF)cc(c1)C[C@H](NC(=O)[C@@H](COC1CN(C(=O)C#CC(C)(C)N(C)C)C1)C(C)C)C(=O)N1CCC[C@H](N1)C(=O)OCC(C)(C)C2 (atropisomer, axis not shown)
Found: 7.00 to 8.00

Lookup: May I ask what pIC50 has been recorded for C=CS(=O)(=O)N1CCC2(CCN([C@H](C(=O)N[C@H]3Cc4cc(O)cc(c4)-c4ccc5c(c4)c(c(-c4cccnc4[C@H](C)OC)n5CC)CC(C)(C)COC(=O)[C@@H]4CCCN(N4)C3=O)C(C)C)C2=O)C1 (some centres unmarked) ?
Found: > 8.00

Lookup: Give its pIC50 value. Item: C=CC(=O)N1CC(N(C)C(=O)N(C)[C@H](C(=O)N[C@H]2Cc3nc(cs3)-c3ccc4c(c3)c(c(-c3cccnc3[C@H](C)OC)n4CC(F)(F)F)CC(C)(C)COC(=O)[C@@H]3CCCN(N3)C2=O)C(C)C)C1 (atropisomer, axis not shown)
Found: > 8.00

Lookup: Recorded pIC50 of CCn1c(-c2cccnc2[C@H](C)OC)c2c3cc(ccc31)-c1csc(n1)C[C@H](NC(=O)[C@H](C(C)C)N(C)C(=O)N1CCCOC13CN(C(=O)C#CC(C)(C)N(C)C)C3)C(=O)N1CCC[C@H](N1)C(=O)OCC(C)(C)C2 (atropisomer, axis not shown) , please.
Found: 5.00 to 6.00

Next:
Lookup: # input compound: CCn1c(-c2cccnc2[C@H](C)OC)c2c3cc(ccc31)-c1cnc(o1)C[C@H](NC(=O)[C@@H](COC1CN(C(=O)C#CC(C)(C)N(C)C)C1)C(C)C)C(=O)N1CCC[C@H](N1)C(=O)OCC(C)(C)C2 (atropisomer, axis not shown) ; wanted: its pIC50
Found: 7.00 to 8.00

Lookup: // query pIC50 value for entry C=CC(=O)N1CCOC2(C1)CN(C(=O)N(C)[C@H](C(=O)N[C@H]1Cc3cccc(c3)-c3ccc4c(c3)c(c(-c3cccnc3[C@H](C)OC)n4CC(F)(F)F)CC(C)(C)COC(=O)[C@@H]3CCCN(N3)C1=O)C(C)C)C2 (atropisomer, axis not shown)
Found: 7.00 to 8.00

Lookup: Please give the measured pIC50 for this compound: C=CC(=O)Nc1ncc(C(=O)N(C)[C@H](C(=O)N[C@H]2Cc3cccc(c3)-c3ccc4c(c3)c(c(-c3cccnc3[C@H](C)OC)n4CC)CC(C)(C)COC(=O)[C@@H]3CCCN(N3)C2=O)C(C)C)n1C (atropisomer, axis not shown)
Found: > 8.00

----------
experimentalTarget: KRAS G13D (Homo sapiens (Human), UniProt P01116+P62937, G13D)
Sequence (P01116-2 other isoform, or with tags, fused parts or gaps G13D): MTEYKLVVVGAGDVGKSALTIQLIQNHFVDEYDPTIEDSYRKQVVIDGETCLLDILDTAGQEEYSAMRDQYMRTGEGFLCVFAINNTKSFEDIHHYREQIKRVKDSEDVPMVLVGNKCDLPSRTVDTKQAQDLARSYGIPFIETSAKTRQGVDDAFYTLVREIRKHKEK
Sequence (P62937 whole entry): as the sequence (P62937 whole entry) above
measurementDescription: Ras-Raf (BRAF RBD) disruption / FRET / MOA assay, KRAS G13D
Assay type: biochemical
conditionInfo: read-out: IC50* KRAS G13D FRET data
Quick reference for IC50 among some compounds

Observe how each entry below is paired with its result.
Lookup: I am curious: what IC50 value has been reported for C=CC(=O)N1CC[C@H](C(=O)N(C)[C@H](C(=O)N[C@H]2Cc3cc(O)cc(c3)-c3ccc4c(c3)c(c(-c3cccc5c3COC5)n4CC)CC(C)(C)COC(=O)[C@@H]3CCCN(N3)C2=O)C(C)C)C1 [Example A227] ?
Found: > 10 µM

Lookup: Which IC50 is listed for C=CC(=O)N(C)CCN1CCN(C(=O)N(C)[C@H](C(=O)N[C@H]2Cc3cccc(c3)-c3ccc4c(c3)c(c(-c3cccnc3[C@H](C)OC)n4CC)CC(C)(C)COC(=O)[C@@H]3CCCN(N3)C2=O)C(C)C)CC1 (atropisomer, axis not shown) [Example A539] ?
Found: 1 to 10 µM

Lookup: Given the entry C=CS(=O)(=O)N1CC[C@H](C(=O)N(C)[C@H](C(=O)N[C@H]2Cc3cc(O)cc(c3)-c3ccc4c(c3)c(c(-c3cncnc3)n4CC)CC(C)(C)COC(=O)[C@@H]3CCCN(N3)C2=O)C(C)C)C1 [Example A172] , report its measured IC50.
Found: > 10 µM

Lookup: Could you share which IC50 value was measured for C=CC(=O)N1CCC(C(=O)N(C)[C@H](C(=O)N[C@H]2Cc3cc(O)cc(c3)-c3ccc4c(c3)c(c(-c3ccccc3CCOC)n4CC)CC(C)(C)c3coc(n3)[C@@H]3CCCN(N3)C2=O)C(C)C)C1 (single isomer, unassigned) [Example A231] ?
Found: > 10 µM

Lookup: Could you share which IC50 value was measured for CCn1c(-c2cccnc2[C@H](C)OC)c2c3cc(ccc31)N1CCO[C@@H](C[C@H](NC(=O)[C@H](C(C)C)N(C)C(=O)C3(F)CCN(C(=O)C#CC(C)(C)N(C)C)CC3)C(=O)N3CCC[C@H](N3)C(=O)OCC(C)(C)C2)C1 (atropisomer, axis not shown) [Example A647] ?
Found: 1 to 10 µM

Lookup: I would be grateful if you could share the reported IC50 for CCn1c(-c2cccnc2[C@H](C)OC)c2c3cc(ccc31)-c1csc(n1)C[C@H](NC(=O)[C@H](C(C)C)N(C)C(=O)[C@H]1CCN(C(=O)C#CC(C)(C)N(C)C)C1)C(=O)N1CCC[C@H](N1)C(=O)OCC(C)(C)C2 (atropisomer, axis not shown) [Example A291] .
Found: > 10 µM

Lookup: Returns the measured IC50 for the input compound. Input: CC#CC(=O)N1CC2(CCN2C(=O)N(C)[C@H](C(=O)N[C@H]2Cc3nc(cs3)-c3ccc4c(c3)c(c(-c3cccnc3[C@H](C)OC)n4CC)CC(C)(C)COC(=O)[C@@H]3CCCN(N3)C2=O)C(C)C)C1 (atropisomer, axis not shown) [Example A655]
Found: 0.1 to 1 µM

Lookup: Which IC50 is reported for this compound? CCn1c(-c2cccnc2[C@H](C)OC)c2c3cc(ccc31)-c1cnc(o1)C[C@H](NC(=O)[C@@H](COC1CN(C(=O)C#CC(C)(C)N(C)C)C1)C(C)C)C(=O)N1CCC[C@H](N1)C(=O)OCC(C)(C)C2 (atropisomer, axis not shown) [Example A649]
Found: > 10 µM

Others:
Lookup: Which IC50 value belongs to C/C=C/C(=O)N1CC2(CCN(C(=O)N(C)[C@H](C(=O)N[C@H]3Cc4nc(cs4)-c4ccc5c(c4)c(c(-c4cccnc4[C@H](C)OC)n5CC)CC(C)(C)COC(=O)[C@@H]4CCCN(N4)C3=O)C(C)C)CC2)C1 (atropisomer, axis not shown) [Example A671] ?
Found: 0.1 to 1 µM

Lookup: Item under review: CCn1c(-c2cccnc2[C@H](C)OC)c2c3cc(ccc31)-c1cc(O)cc(c1)C[C@H](NC(=O)[C@H](C(C)C)N(C)C(=O)c1ncc(NC(=O)/C=C/CN(C)C)n1C)C(=O)N1CCC[C@H](N1)C(=O)OCC(C)(C)C2 [Example A529] . Reported IC50?
Found: 0.1 to 1 µM

Lookup: Give its IC50 value. Item: C=CC(=O)N1CC[C@H](C(=O)N(C)[C@H](C(=O)N[C@H]2Cc3cccc(c3)-c3ccc4c(c3)c(c(-c3cccnc3[C@H](C)OC)n4CC)CC(C)(C)COC(=O)[C@@H]3CCCN(N3)C2=O)C2COC2)C1 (atropisomer, axis not shown) [Example A469]
Found: 1 to 10 µM
